NACHT, LRR and PYD domains-containing protein 3 (Homo sapiens) IC50 data
Sequence (Q96P20 whole entry, the tested form may be a part): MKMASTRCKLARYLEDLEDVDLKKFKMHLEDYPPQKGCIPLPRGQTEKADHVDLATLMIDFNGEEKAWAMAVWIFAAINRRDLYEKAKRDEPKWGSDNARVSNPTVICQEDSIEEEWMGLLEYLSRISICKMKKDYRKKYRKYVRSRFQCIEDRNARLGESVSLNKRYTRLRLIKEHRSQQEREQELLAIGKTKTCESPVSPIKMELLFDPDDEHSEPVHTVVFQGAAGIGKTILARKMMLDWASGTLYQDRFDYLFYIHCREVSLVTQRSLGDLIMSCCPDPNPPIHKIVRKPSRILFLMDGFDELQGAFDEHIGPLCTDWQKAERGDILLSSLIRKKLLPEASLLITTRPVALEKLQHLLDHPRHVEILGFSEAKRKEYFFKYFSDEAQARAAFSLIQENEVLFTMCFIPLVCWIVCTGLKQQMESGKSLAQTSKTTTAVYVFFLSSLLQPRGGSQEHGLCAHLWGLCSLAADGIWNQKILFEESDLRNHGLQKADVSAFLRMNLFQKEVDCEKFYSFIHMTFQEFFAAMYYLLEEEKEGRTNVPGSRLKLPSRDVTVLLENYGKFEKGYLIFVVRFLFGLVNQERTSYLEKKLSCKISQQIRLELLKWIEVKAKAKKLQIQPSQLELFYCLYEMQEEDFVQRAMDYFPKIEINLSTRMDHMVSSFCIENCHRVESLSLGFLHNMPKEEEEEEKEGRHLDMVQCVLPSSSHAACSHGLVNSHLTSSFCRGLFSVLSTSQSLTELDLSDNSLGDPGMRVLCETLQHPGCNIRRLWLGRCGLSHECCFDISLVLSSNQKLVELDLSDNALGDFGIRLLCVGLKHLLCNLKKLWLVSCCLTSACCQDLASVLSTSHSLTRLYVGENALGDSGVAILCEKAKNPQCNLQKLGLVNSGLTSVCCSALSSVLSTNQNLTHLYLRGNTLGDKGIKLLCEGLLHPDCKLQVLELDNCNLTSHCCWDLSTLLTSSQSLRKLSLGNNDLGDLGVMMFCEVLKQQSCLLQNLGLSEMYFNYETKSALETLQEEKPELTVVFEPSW
Give the quantity in nM, number only.

Look over these answered cases.
In [3]: df
Out[3]:
                                   molecule                               test_target  quantitative_readout
0  Cc1ccc(C(F)(F)F)cc1Nc1nc(C(=O)NS(=O)(=O)N2CCC(CS(C)(=O)=O)CC2)co1  NACHT, LRR and PYD domains-containing protein 3 (Homo sapiens)                   240
1  Cc1ccc(C(F)(F)F)cc1Nc1nc(C(=O)NS(=O)(=O)N2CCC[C@H]2C(=O)N(C)C)co1  NACHT, LRR and PYD domains-containing protein 3 (Homo sapiens)                   280
2  CC(C)c1cc(Nc2nc(C(=O)NS(=O)(=O)N3CCCOCC3)co2)n(C(C)C)n1  NACHT, LRR and PYD domains-containing protein 3 (Homo sapiens)                  2200
3  Cc1ccc(C(F)(F)F)cc1Nc1nc(C(=O)NS(=O)(=O)N2CC(F)(F)C2)co1  NACHT, LRR and PYD domains-containing protein 3 (Homo sapiens)                   530
4  CCC(CC)n1cc(C)c(Nc2nc(C(=O)NS(=O)(=O)N3CCCOCC3)co2)n1  NACHT, LRR and PYD domains-containing protein 3 (Homo sapiens)                  9800

Lab note: molecule `Cc1ccc(C(F)(F)F)cc1Nc1nc(C(=O)NS(=O)(=O)N(C)Cc2ccccc2)co1` tested on NACHT, LRR and PYD domains-containing protein 3 (Homo sapiens); recorded IC50 was 49

Lab note: molecule COCC1CCN(S(=O)(=O)NC(=O)c2coc(Nc3cc(C(F)(F)F)ccc3C)n2)C1 (configuration not stated) tested on NACHT, LRR and PYD domains-containing protein 3 (Homo sapiens); recorded IC50 was 69

---

biological target: NACHT, LRR and PYD domains-containing protein 3 (Homo sapiens)
ENDPOINT LABEL: pIC50
Remember the convention: pIC50 equals -log10 of concentration in molar.

Look over these answered cases.
>>> print(df.to_string())
                                   compound  quantitative_readout
0  CCCS(=O)(=O)C1CCCN(S(=O)(=O)NC(=O)c2coc(Nc3nn(C(C)C)cc3C)n2)CC1 (stereo not drawn)                  7.44
1  CCOCC1CCN(S(=O)(=O)NC(=O)c2coc(Nc3cc(C)c(F)cc3C(C)C)n2)CCO1 (stereo not drawn)                  7.74
2  Cc1ccc(C(F)(F)F)cc1Nc1nc(C(=O)NS(=O)(=O)N2CCC(S(C)(=O)=O)CC2)co1                  7.30
3  Cc1cc(Cl)c(C(C)C)cc1Nc1nc(C(=O)NS(=O)(=O)N(C)C)co1                  7.47
4  Cc1cc(F)c(C(C)C)cc1Nc1nc(C(=O)NS(=O)(=O)N2CCOCC(C)(O)C2)co1 (stereo not drawn)                  7.66

Per the record, CC(C)c1nn(C(C)C)cc1Nc1nc(C(=O)NS(=O)(=O)N2CCCC(C#N)CC2)co1 (stereo not drawn) has pIC50 of 6.46

Per the record, `Cc1cc(Nc2nc(C(=O)NS(=O)(=O)N3CCCOCC3)co2)c(C)cc1F` has pIC50 of 7.52

Per the record, Cc1ccc(C(F)(F)F)cc1Nc1nc(C(=O)NS(=O)(=O)N2CCOCC(n3cccn3)C2)co1 (stereo not drawn) has pIC50 of 7.23

Per the record, `Cc1ccc(C(F)(F)F)cc1Nc1nc(C(=O)NS(=O)(=O)N2CCC(F)(F)C2)co1` has pIC50 of 7.05

Per the record, `CCCCS(=O)(=O)N1CCCN(S(=O)(=O)NC(=O)c2coc(Nc3cn(C(C)C)nc3C(C)C)n2)CC1` has pIC50 of 7.15

Per the record, `Cc1ccc(C(F)(F)F)cc1Nc1nc(C(=O)NS(=O)(=O)N(Cc2ccccc2)C(C)C)co1` has pIC50 of 6.74

Per the record, Cc1ccc(C(F)(F)F)cc1Nc1nc(C(=O)NS(=O)(=O)N2CCCC(c3ccccc3)C2)co1 (stereo not drawn) has pIC50 of 5.85

Per the record, `Cc1ccc(C(F)(F)F)cc1Nc1nc(C(=O)NS(=O)(=O)N2CCC[C@@H]2C(=O)N(C)C)co1` has pIC50 of 6.03
